STUDY_SYSTEM: binding of TSP-1 protein to CD36, a TSP-1 receptor protein (Homo sapiens, UniProt P07996)
Construct: purchased novoprotein (TSP-1); R&D Systems (Fc-tagged CD36) CU45 (TSP-1); 1955-CD-050 (CD36-Fc)
Sequence (P07996 19-1170): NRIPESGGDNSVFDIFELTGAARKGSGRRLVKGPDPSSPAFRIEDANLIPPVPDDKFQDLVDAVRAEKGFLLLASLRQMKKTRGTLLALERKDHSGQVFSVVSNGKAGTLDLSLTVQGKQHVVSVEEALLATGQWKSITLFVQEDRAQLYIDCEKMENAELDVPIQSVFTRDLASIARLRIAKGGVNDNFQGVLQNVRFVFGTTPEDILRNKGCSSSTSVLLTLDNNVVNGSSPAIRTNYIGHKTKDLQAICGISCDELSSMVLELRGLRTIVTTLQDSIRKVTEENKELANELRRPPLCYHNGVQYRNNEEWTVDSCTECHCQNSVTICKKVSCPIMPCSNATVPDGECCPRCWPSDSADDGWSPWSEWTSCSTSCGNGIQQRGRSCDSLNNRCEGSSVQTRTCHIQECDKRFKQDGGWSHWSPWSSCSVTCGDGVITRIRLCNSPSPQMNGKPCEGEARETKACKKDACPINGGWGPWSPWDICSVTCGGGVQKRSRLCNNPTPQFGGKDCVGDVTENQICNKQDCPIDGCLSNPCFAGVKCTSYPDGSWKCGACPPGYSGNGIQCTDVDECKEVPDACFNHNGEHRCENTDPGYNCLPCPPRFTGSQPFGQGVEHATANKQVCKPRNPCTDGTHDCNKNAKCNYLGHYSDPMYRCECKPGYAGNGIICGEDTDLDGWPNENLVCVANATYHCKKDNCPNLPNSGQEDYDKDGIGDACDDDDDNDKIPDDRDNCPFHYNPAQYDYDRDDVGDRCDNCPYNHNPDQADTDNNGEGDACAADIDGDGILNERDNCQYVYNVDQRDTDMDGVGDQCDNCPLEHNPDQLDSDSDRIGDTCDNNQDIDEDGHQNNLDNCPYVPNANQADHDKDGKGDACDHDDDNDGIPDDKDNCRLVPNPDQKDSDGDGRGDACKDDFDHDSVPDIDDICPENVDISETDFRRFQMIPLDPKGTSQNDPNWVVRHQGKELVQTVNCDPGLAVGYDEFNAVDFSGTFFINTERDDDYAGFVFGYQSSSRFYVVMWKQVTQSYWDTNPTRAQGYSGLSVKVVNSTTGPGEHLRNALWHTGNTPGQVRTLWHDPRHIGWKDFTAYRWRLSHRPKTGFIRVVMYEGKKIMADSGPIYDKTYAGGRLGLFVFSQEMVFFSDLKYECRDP
PROTOCOL_DETAILS: ELISA: blocking of CD36 binding to TSP-1 protein
ASSAY_SETUP: 3 h, 100 μM polypeptide, 0.25 μg/mL Fc-tagged CD36; blocking of CD36 binding to TSP-1; read-out: Blocking rate (Mean, %)
Bridge positions count the residues as written; N and C are the ends. Peptide text beside a SMILES is read from it.
MEASURED_PARAMETER: inhibition at 100 µM (%)
Output spec: scalar in %, unitless text.

Documented inhibition at 100 µM of CC(=O)N[C@H](C(=O)N[C@H]1CSSC[C@@H](C(N)=O)NC(=O)[C@H](CC(N)=O)NC(=O)[C@H](CC(=O)O)NC(=O)[C@H](CCC(=O)O)NC(=O)[C@H](C)NC(=O)[C@H](CC(=O)O)NC1=O)[C@@H](C)O [SEQ ID NO: 44] (Ac-TCDAEDNC-NH2; disulfide 2-8) : 52.9

Reported inhibition at 100 µM of CC(=O)N[C@H](C(=O)N[C@H]1CSSC[C@@H](C(=O)O)NC(=O)[C@H](CC(N)=O)NC(=O)[C@H](CC(=O)O)NC(=O)[C@H](CCC(=O)O)NC(=O)[C@H](C)NC(=O)[C@H](CC(=O)O)NC1=O)[C@@H](C)O [SEQ ID NO: 43] (Ac-TCDAEDNC-OH; disulfide 2-8) : 52

Entry C[C@@H]1NC(=O)[C@H](CC(=O)O)NC(=O)[C@H](CCC(N)=O)NC(=O)[C@H]([C@@H](C)O)NC(=O)[C@H](CC(N)=O)NC(=O)[C@H](CC(=O)O)NC(=O)[C@H](CCC(=O)O)NC1=O [SEQ ID NO: 40, cyclo[Thr-Gln-Asp-Ala-Glu-Asp-Asn]] (cyclo(AEDNTQD)) ; inhibition at 100 µM = 37.5

Entry C[C@@H]1NC(=O)[C@H]([C@@H](C)O)NC(=O)[C@H](CC(N)=O)NC(=O)[C@H](CC(=O)O)NC(=O)[C@H](CCC(=O)O)NC(=O)[C@@H]2CCCN2C(=O)[C@H](CC(=O)O)NC(=O)[C@H](CCC(N)=O)NC(=O)[C@H]([C@@H](C)O)NC(=O)[C@H](CO)NC1=O [SEQ ID NO: 46] (cyclo(ASTQDPEDNT)) , inhibition at 100 µM reported as 56.1
